B1: ZNF24 (parent)
chain: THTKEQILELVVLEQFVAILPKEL

variants of: B1; assay: protein stability index of a GFP-peptide fusion (GPS, HEK-293T) (PSI 1-6); higher = more stable; settings: c terminus: a fixed tail appended;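 further: lentivirally expressed fusions sorted by FACS into six bins by GFP to DsRed ratio, PSI derived from sequencing read proportions per bin multiplied by bin number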
Where protein stability index equals or exceeds 3, the correct label is criterion met; where it does not, the label is criterion not met.

[
  {
    "variant_code": "L8G",
    "category": "criterion not met"
  },
  {
    "variant_code": "F16K",
    "category": "criterion not met"
  },
  {
    "variant_code": "F16N",
    "category": "criterion not met"
  },
  {
    "variant_code": "I19W",
    "category": "criterion not met"
  },
  {
    "variant_code": "P21N",
    "category": "criterion met"
  }
]

**Query** Answer whether protein stability index of T3A is greater than or equal to 3.
**Result** criterion met

**Query** Would you mind doing T1K as well?
**Result** criterion not met

**Query** Same question for E9G please.
**Result** criterion not met

**Query** Field entry: E9K
**Result** criterion not met

**Query** Same thing, different variant: L24T
**Result** criterion not met

**Query** What do you get for H2I ?
**Result** criterion met

**Query** And for Q15N ?
**Result** criterion not met

**Query** Queued: K22P
**Result** criterion not met

**Query** Now try L13I .
**Result** criterion met

**Query** Let us now turn to E5T
**Result** criterion met

**Query** Check H2P too.
**Result** criterion not met

**Query** Would you kindly repeat that for P21I ?
**Result** criterion not met
